# Tested on: SK-MEL-2
# METHOD NOTES: NCI tumour cell line growth inhibition, 48 h
Active and inactive are the calls of the source. No stated cut-off is given here; in the data, active = GI50 up to about 1.1 µM and inactive = higher.
VALUE KIND: GI50

O=C1c2ccccc2C(=O)N1CCc1nc(-c2ccccc2)c[nH]1: > 100 µM (inactive)
O=C1/C=C(/c2ccc(O)cc2)[C@@H](OC2OC(CO)C(O)C(O)C2O)Cc2ccc(O)cc2O1.O=C1/C=C(/c2ccc(O)cc2)[C@H](O)Cc2ccc(O[C@@H]3OC(CO)C(O)C(O)C3O)cc2O1 (some centres undefined): > 100 µM (inactive)
CC1CC(c2cccc3c2OCO3)=Nc2ccccc2S1 (centres undefined): > 100 µM (inactive)
COC(=O)C12OCC34C(CC5C(C)=CC(=O)C(O)C5(C)C3C(O)C1O)OC(=O)C(OC(=O)CC(C)C)C24 (centres undefined): 0.00281 µM (active)

*Q* State the recorded GI50 for this entry: CCOC(=O)Nc1cc2nnc(-c3ccccc3)nc2c(N)n1
*A* 11.4 µM (inactive)

*Q* State the recorded GI50 for this entry: COc1ccccc1NS(=O)(=O)c1ccc2ncn(NS(=O)(=O)c3ccc(Cl)cc3)c(=O)c2c1
*A* 45.2 µM (inactive)

*Q* State the recorded GI50 for this entry: CC(C)=C1CCC(CN2CCCC2)C1=O (centres undefined)
*A* 29.6 µM (inactive)

*Q* State the recorded GI50 for this entry: CCOC(=O)c1ccc(NCC#CCN2CCOCC2)cc1
*A* > 100 µM (inactive)

*Q* State the recorded GI50 for this entry: COc1ccc(C2=CC(C(C)=C(C(N)=O)C(N)=O)C=C(c3ccc(Br)cc3)C2)c(OC)c1 (centres undefined)
*A* > 100 µM (inactive)

###

# Tested on: ACHN
# METHOD NOTES: NCI tumour cell line growth inhibition, 48 h
The source made the active and inactive calls. No stated cut-off is given here; in the data, active = GI50 up to about 1.1 µM and inactive = higher.
VALUE KIND: GI50

Below, 4 molecules whose answers are already recorded.
CN1CCN(c2ccc3nc(C4=C(O)C(=O)c5c(nc(CO)n5C)C4=O)[nH]c3n2)CC1: > 100 µM (inactive)
COc1cc(Nc2c(C#N)[n+]([O-])c3ccccc3[n+]2[O-])cc(OC)c1OC: 56.8 µM (inactive)
C1CC2CN(CCCN3CCOCC3)C(C1)O2 (stereo unspecified): > 100 µM (inactive)
CC(=O)N1CCc2c([nH]c3ccc(Br)cc23)C1c1ccccc1 (stereo unspecified): > 7.36 µM (inactive)

*Q* State the recorded GI50 for this entry: CC(=O)OC1CCn2nnc(COC(=O)NC(C)C)c21 (stereo unspecified)
*A* > 100 µM (inactive)

###

# System: NCI-H23
# METHOD NOTES: NCI tumour cell line growth inhibition, 48 h
Active and inactive are the calls of the source. Cut-off read from the data, not from the text of the source: active = GI50 up to about 1.1 µM and inactive = higher.
Mark one answer only. Choices: YES for active, NO for inactive

COc1ccc2nc3cc(Cl)ccc3c(NCCCNCCCNc3c4ccc(Cl)cc4nc4ccc(OC)cc34)c2c1: YES
CC(=O)Nc1ccccc1SCCSSCCSc1ccccc1NC(C)=O: NO

*Q* Hi, do you know how Oc1ccc(SCc2cc(O)c(O)c(O)c2)cc1 came out in this test?
*A* NO

*Q* Hi, do you know how O=C(Nc1cccc2nsnc12)c1cc2c(cc1Cl)Sc1nccn1S2(=O)=O came out in this test?
*A* NO

*Q* Hi, do you know how O=c1[c-](-c2ccccc2)[se]c(-c2ccccc2)[n+]1-c1ccccc1 came out in this test?
*A* NO

###

# System: ACHN
# METHOD NOTES: NCI tumour cell line growth inhibition, 48 h
Calls of active or inactive are those of the source. Rule as the data show it: active = GI50 up to about 1.1 µM and inactive = higher.
Mark one answer only. Choices: active, inactive

*Q* Hi, do you know how O=C(C(=O)c1ccc(Cc2ccc(C(=O)C(=O)c3ccccc3)cc2)cc1)c1ccccc1 came out in this test?
*A* inactive

*Q* Hi, do you know how CC(=O)Nc1ccc(-c2nnc(SCC(=O)Nc3ccccc3Cl)o2)cc1 came out in this test?
*A* inactive

*Q* Hi, do you know how O=c1c2cc(I)ccc2nc(Sc2ncccc2[N+](=O)[O-])n1Cc1ccccc1 came out in this test?
*A* inactive

*Q* Hi, do you know how CC1(C)CN=C(Nc2ccc(F)c(F)c2)S1 came out in this test?
*A* inactive

*Q* Hi, do you know how [O-]c1c2cc(-[n+]3c(-c4ccccc4)cc(-c4ccccc4)cc3-c3ccccc3)cc1CO[C@@H](c1ccccc1)[C@H](c1ccccc1)OCc1cccc(n1)CO[C@@H](c1ccccc1)[C@H](c1ccccc1)OC2 came out in this test?
*A* active

*Q* Hi, do you know how CO[C@@H]1[C@H](OC(=O)NC(=O)CCl)CC[C@]2(CO2)[C@H]1[C@@]1(C)O[C@@H]1CC=C(C)C [O-CHLOROACETYLCARBAMOYLFUMAGILLOL] came out in this test?
*A* inactive

*Q* Hi, do you know how COc1cc(/C=C2/Oc3c(OC)cccc3C2=O)ccc1O came out in this test?
*A* inactive

*Q* Hi, do you know how Cc1cc(-c2[nH]c(C(=O)O)cc2I)on1 came out in this test?
*A* inactive

###

# System: HCC 2998
# METHOD NOTES: NCI tumour cell line growth inhibition, 48 h
Activity calls are given as the source filed them. No stated cut-off is given here; in the data, active = GI50 up to about 1.1 µM and inactive = higher.
Mark one answer only. Choices: active, inactive

The following compounds have reported results that may help.
CC12CC(Sc3ccccc3N1)c1ccccc1O2 (stereo not drawn): inactive
C[C@H](NC(=O)n1c2ccccc2c2ccccc21)C(=O)O: inactive
CC(=O)O[C@H]1CC[C@@]2(C)C(CC[C@]3(C)C2CC[C@]2(C)Oc4c(C)cc(O)cc4C[C@@H]23)C1(C)C (stereo partly drawn): inactive
Cc1cnc2sn(-c3ccc(Br)cc3)c(=O)c2c1: inactive
OC1[C@@H]2[C@@H](O)CCCN2C[C@@H](O)[C@H]1O (stereo partly drawn): inactive

*Q* Hi, do you know how Cc1nc2c(O)c3c(c(O)c2nc1C)C1C=CC3CC1 came out in this test?
*A* inactive

*Q* Hi, do you know how O=C(CC(CC(=O)Oc1c(Br)cc(Br)cc1C(=O)O)C(=O)Oc1c(Br)cc(Br)cc1C(=O)O)Oc1c(Br)cc(Br)cc1C(=O)O came out in this test?
*A* inactive

*Q* Hi, do you know how N#CCc1ccc(C(C#N)/C(CCCC(=O)Nc2cccc([N+](=O)[O-])c2)=N/NC(N)=S)cc1 (stereo not drawn) came out in this test?
*A* inactive

*Q* Hi, do you know how CCN1CSC(=S)N(CC)C1 came out in this test?
*A* inactive

*Q* Hi, do you know how COC(=O)c1cc2ccc(O)c(O)c2cn1 came out in this test?
*A* inactive

*Q* Hi, do you know how Cc1cccc2c(N)c3cccc(C(=O)NCCN(C)C)c3nc12 came out in this test?
*A* active

*Q* Hi, do you know how NC(CCP(=O)(O)CCC1C=CC=CC1)C(=O)O (stereo not drawn) came out in this test?
*A* inactive

*Q* Hi, do you know how CC1C2CCC3C(O)C2(CC(O)C2(O)C1CC(O)C2(C)C)CC3(C)O (stereo not drawn) came out in this test?
*A* inactive

###

# System: T47D
# METHOD NOTES: NCI tumour cell line growth inhibition, 48 h
The source made the active and inactive calls. Rule as the data show it: active = GI50 up to about 1.1 µM and inactive = higher.
Mark one answer only. Choices: active, inactive

CCCCOc1ccc(S(=O)(=O)N/C(N)=N/c2ccc(Cl)cc2)cc1: inactive
C[C@@H]1C[C@H]2OC(=O)[C@@]3(C)CCC[C@@](C)([C@@H]23)[C@@]1(O)CCc1ccoc1: inactive
C[N+](C)(C)CC1CCCC(C[N+](C)(C)C)C1=O (stereo not given): active

*Q* Hi, do you know how CN1CCc2c(sc3ncn(C)c(=N)c23)C1 came out in this test?
*A* inactive

###

Recorded GI50 values for a group of compounds are listed next.
# Tested on: SF-295
# METHOD NOTES: NCI tumour cell line growth inhibition, 48 h
Active and inactive are the calls of the source. Cut-off read from the data, not from the text of the source: active = GI50 up to about 1.1 µM and inactive = higher.

Below, 4 compounds whose answers are already recorded.
N/N=C1\C(OC(=O)Nc2cccc(Cl)c2)=Nc2ccccc21: 2.35 µM (inactive)
CC1(C)CCC[C@@]2(C)C1CCC1(C)C(CCc3ccoc3)/C(=C/OS(=O)(=O)O)CCC12 (stereo not given in full): 49.9 µM (inactive)
Cc1ccc(CC(=O)Nc2ccc(NC(=O)/C=C/NC(=O)/C=C/c3ccc(-c4ccccc4)cc3)cc2C(=O)c2ccccc2)cc1: 1.36 µM (inactive)
COc1cc(OC)c2c(c1OC)OCC(Cc1ccc(O)cc1)C2=O (stereo not given): > 25 µM (inactive)

*Q* State the recorded GI50 for this entry: CC(C)(C)OC(=O)NCCCNC1(c2cc3ccccc3s2)CCCCC1
*A* 14.8 µM (inactive)

###

# System: LOX IMVI
# METHOD NOTES: NCI tumour cell line growth inhibition, 48 h
The source made the active and inactive calls. Rule as the data show it: active = GI50 up to about 1.1 µM and inactive = higher.
VALUE KIND: GI50

Below, 5 compounds whose answers are already recorded.
COc1cc(OC)c2c(c1OC)OCC(Cc1ccc(O)cc1)C2=O (stereo not drawn): > 25 µM (inactive)
COc1cc(/C=C2/Oc3c(OC)cccc3C2=O)ccc1O: 84.5 µM (inactive)
Cc1ccc(S(=O)(=O)N2CCC(C(=O)O)(c3ccccc3)CC2)cc1: > 100 µM (inactive)
Cc1ccc(CC(=O)Nc2ccc(NC(=O)/C=C/NC(=O)/C=C/c3ccc(-c4ccccc4)cc3)cc2C(=O)c2ccccc2)cc1: 2.03 µM (inactive)
NC(=O)C(=CN1C(=O)CC(=O)NC1=S)C(N)=O: > 100 µM (inactive)

*Q* State the recorded GI50 for this entry: N=C(CSS(=O)(=O)O)NC1CC2CCC1C2 (stereo not drawn)
*A* 46 µM (inactive)

*Q* State the recorded GI50 for this entry: COC(=O)/C(C)=N/N=C(\S)SC
*A* 37.2 µM (inactive)

*Q* State the recorded GI50 for this entry: COc1ccc2c(c1OC)CN1CCc3cc4c(cc3C1C2)OCO4 (stereo not drawn) [TETRAHYDROBERBERINE]
*A* > 100 µM (inactive)

*Q* State the recorded GI50 for this entry: O=C(Nn1cnn2c(=O)c3ccccc3nc2c1=O)c1ccccc1
*A* > 100 µM (inactive)

*Q* State the recorded GI50 for this entry: COC(=O)c1c(C)cccc1C1CN=NC12Cc1cc(C)cc(C)c1C2=O (stereo not drawn)
*A* 17 µM (inactive)
